FYI, the data here is from paper PMC9822270.

Test system: AR-230 (BCR-ABL positive chronic myeloid leukemia)
test: MTT cytotoxicity assay, AR-230
Type: cell-based, human
statedConditions: Homo sapiens; MTT, 72 h exposure; ± SD; read-out: IC50 AR-230
recordedMetric: log10 IC50 (log10 of the value in µM)
Values are log10 of IC50 in µM.

molecule	recordedMetric	observedValue
COc1ccc(/C=N/Nc2nc3ccccc3[nH]2)c(O)c1 [Compound 1k]	log10 IC50	-0.05
COc1ccc(/C=N/Nc2nc3ccccc3[nH]2)cc1O [Compound 1l]	log10 IC50	1.23
COc1cc(/C=N/Nc2nc3ccccc3[nH]2)cc(OC)c1OC [Compound 1i]	log10 IC50	0.23
COc1cccc(OC)c1/C=N/Nc1nc2ccccc2[nH]1 [Compound 1g]	log10 IC50	1.06
Oc1cccc(/C=N/Nc2nc3ccccc3[nH]2)c1O [Compound 1b]	log10 IC50	0.52
Oc1ccccc1/C=N/Nc1nc2ccccc2[nH]1 [Compound 1a]	log10 IC50	1.33
COc1cc(/C=N/Nc2nc3ccccc3[nH]2)cc(OC)c1 [Compound 1h]	log10 IC50	0.77
COc1cccc(/C=N/Nc2nc3ccccc3[nH]2)c1O [Compound 1j]	log10 IC50	0.04
COc1ccc(/C=N/Nc2nc3ccccc3[nH]2)cc1 [Compound 1f]	log10 IC50	1.29

# evaluate next
Return log10 IC50 for the following molecule: Oc1ccc(/C=N/Nc2nc3ccccc3[nH]2)cc1O [Compound 1d]
1.79
